Experiment: inhibitors of the yeast RAM network, pilot screen, dse1pr::URA3 reporter, 5-FOA selection (AID 869);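 further: 0% = DMSO wells with no growth and 100% = 10 µM 1-NA-PP1 with full growth; RAM network block rescues cells from 5-FOA so hits raise OD615 growth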
Settings: S. cerevisiae dse1pr::URA3 5-FOA growth, OD615, 2 d; at 10 µM; active compounds read high; strain carries analog-sensitive mutant Cbk1 kinase
measurement.name: inhibition (%)
Your answer should be a plain number; it is taken to be in %.

Prompt: Quick check: inhibition of c1ccc(-c2cnnc(N3CCCCC3)n2)cc1 ?
Response: 0.13

Prompt: Input Cc1cc(C)n(C(CC(=O)N2CCc3ccccc3C2)C(=O)O)n1 (stereo unspecified)
Response: 0

Prompt: Next molecule: Cc1cc(SCC(=O)c2ccccc2)n2nc(C)nc2n1
Response: 2.91

Prompt: // query: COc1ccc(S(=O)(=O)N2Cc3ccccc3CC2C(=O)O)cc1OC (stereo unspecified)
Response: 1.33

Prompt: Another: CN(C)c1nc(-c2ccccc2)c2cnn(Cc3ccccc3)c2n1
Response: 1.59

Prompt: Try the molecule Cc1onc(-c2ccccc2Cl)c1C(=O)NCCN1Cc2ccccc2C1=O
Response: 0.375

Prompt: COc1cc(OC)cc(OCC(O)Cn2cnc3cc(C)c(C)cc32)c1 (stereo unspecified) ?
Response: 1.33

Prompt: Request: CCOc1cccc(-c2nc(C(N)=O)c3[nH]c(=O)n(-c4cccc(Cl)c4)c3n2)c1O
Response: 0.85

Prompt: // query: CC1CCC(n2c(=S)[nH]c3ccccc3c2=O)CC1 (stereo unspecified)
Response: 0.285

Prompt: Try COC(=O)C1C(O)=C(C=NCC(C)N=CC2=C(O)C(C(=O)OC)C(C)(C)CC2=O)C(=O)CC1(C)C (stereo unspecified) next.
Response: 2.5

Prompt: Queued: COC(=O)c1ccccc1N(Cc1ccccc1)S(C)(=O)=O
Response: -0.425

---

Assay: viability gain of MRP-1-high H69AR cells under doxorubicin, pilot screen, MRP-1 activator project, CellTiter-Glo, duplicate (AID 807);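 further: compound pretreatment 18-22 h then 72 h combined with doxorubicin; 0% = doxorubicin alone and 100% = vehicle without doxorubicin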
Conditions: H69AR viability with doxorubicin, CellTiter-Glo luminescence; at 10 µM; active compounds read high
measurement.name: viability increase (%)
Answer with a number only, understood to be in %.

Prompt: Tell me the measured viability increase of COc1ccc(N2CCN(c3cc(C)c4ccc(O)cc4n3)CC2)cc1 , please.
Response: -2.1

Prompt: Also Nc1ccc(-c2nc3ccc(N)cc3o2)cc1 ?
Response: -1.18

Prompt: Follow-up item: COc1cccc(NS(=O)(=O)c2nc3nc(C)cc(C)n3n2)c1
Response: -1.57

Prompt: Then this compound: CCOC(=O)N1CCC(NC(=O)c2cc3c(-c4ccc(Cl)cc4)nn(C)c3s2)CC1
Response: -5.61

Prompt: Please do the same for COc1ccc(NC(=O)Nc2ccc3c(c2)N(C)C(=O)CS3)cc1OC as well.
Response: -4.94

Prompt: Lookup O=C(CCSc1nc(-c2ccc3c(c2)OCO3)cc(C(F)(F)F)n1)NCc1ccco1
Response: -2.85

---

Test: RAM signaling pathway blockade in yeast – S. cerevisiae, Pdr1DBD-CYC8 efflux-inhibited sensitized strain, primary screen (AID 1298);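 further: 0% = DMSO untreated cells without growth and 100% = 10 µM 1-NA-PP1 full growth; higher means more yeast growth rescued from 5-FOA killing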
Details: S. cerevisiae cbk1-as DSE1-URA3 strain, 5-FOA growth OD615, 2 d; at 50 µM; active compounds read high
measurement.name: RAM network inhibition (%)
Use % as the unit, but write only the number.

Prompt: Requested read-out: RAM network inhibition. Entry: O=C(Cn1cnc2c(cnn2-c2ccccc2)c1=O)c1ccc(Cl)cc1
Response: 3.34

Prompt: What do you have for COc1ccc(C2c3c(oc4ccc(F)cc4c3=O)C(=O)N2CCN2CCOCC2)cc1OC (stereo not drawn) ?
Response: 2.7

Prompt: What do you have for CCC(CC)C(=O)N1c2ccc(F)cc2CCC1C (stereo not drawn) ?
Response: 1.96

Prompt: Likewise for CCCC1(C(=O)O)NC(c2ccc(OC)cc2O)C2C(=O)N(c3ccc(OC)cc3)C(=O)C21 (stereo not drawn) ?
Response: 2.34

Prompt: What do you get for COc1cccc(C2CC(c3ccc(Cl)cc3Cl)n3nc(N)nc3N2)c1 (stereo not drawn) ?
Response: 8.01

Prompt: And the next one, COc1ccc(C2C(C(=O)Nc3cccc(C)n3)c3ccccc3C(=O)N2C)cc1OC (stereo not drawn) ?
Response: 3.5

Prompt: Next entry: O=S(=O)(c1cccs1)N1CCCc2ccccc21
Response: 3.38

Prompt: Now consider Cc1cc(C(=O)NCc2ccccc2)c(=O)[nH]c1C and answer again.
Response: 0.52

Prompt: Try this molecule next: O=C(Nc1nnc(-c2ccccc2)o1)c1nc2ccccc2s1
Response: 0.11

Prompt: Next entry: COC(=O)c1ccccc1NC(NC(=O)c1ccco1)C(=O)c1ccc(C)cc1 (stereo not drawn)
Response: 7.66

Prompt: Same again, this time with O=C(COC(=O)c1ccc(S(=O)(=O)NCc2ccco2)cc1)Nc1ccccc1OC(F)F
Response: 7.18

Prompt: Could you do the same for C=C(C)CSc1nc2c(cc1C#N)CCC2 , please?
Response: 1.58

Prompt: Another molecule to check: CC(=O)c1c(NCc2ccccc2)nc(=O)n(-c2ccccc2)c1C
Response: 4.07

Prompt: Can you check COCC(C)NC(=O)c1ccc(N(C)C)cc1 (stereo not drawn) next?
Response: 0.51

Prompt: What about this molecule? CC(C)N(C(=O)CN(C#N)c1nc(N(C)C)nc(N(C)C)n1)c1ccccc1
Response: 4.46

Prompt: Same question, O=C(c1ccc(N2CCCCS2(=O)=O)cc1)N1CCN(c2ccc(N3CCOCC3)nn2)CC1 this time
Response: 1.25

Prompt: Try COc1ccc(S(=O)(=O)N(CCc2ccccc2)CC(=O)O)cc1OC next.
Response: 1.09

Prompt: Another molecule: O=C(c1ccccc1C(=O)N1CCN(c2ccccc2F)CC1)N1CCN(c2ccccc2F)CC1
Response: 11.2

Prompt: Same read-out for CN1CCN(C(=O)C2CC(=O)N(c3ccc(F)c(Cl)c3)C2)CC1 (stereo not drawn) ?
Response: 3.12

Prompt: Now consider CCOC(=O)Cn1c(=O)oc2cc(S(=O)(=O)Nc3c(C)cc(C)cc3C)ccc21 .
Response: 4.9

Prompt: Then what about the molecule COc1ccc2nc(NC(=O)C3CCCN3S(=O)(=O)c3ccc(C)cc3)sc2c1 (stereo not drawn) ?
Response: 6.79

Prompt: Also Cc1c(Cl)cccc1NC(=O)CN1C(=O)CSc2ncccc21 ?
Response: -0.13

Prompt: Repeat for the following molecule: CCOC(=O)CSc1nc2nc(C)cc(C)n2n1
Response: 4.98

Origin of values: PubChem BioAssay
